This listing pairs sequences with measured PBM binding z-score.
System: PPARg DBDmut IVT, anti-PPARg (DBD mutation: PPARg1 K132A/R137A, NR concentration 270 nM)
Assay: PBM binding z-score (relative to random genomic background probes); higher = stronger binding; sequences stand for … in GC…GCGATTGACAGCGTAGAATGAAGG
The answer should be a number; do not append a unit.

Consider the worked cases shown below.
sequence=TTACCCAGGTGAGCTGAGGTCGTTGATCCAACTC measured_result=-0.726
sequence=CGTCCAAGGGCATAGGAGGTCAGTGAAGACAGAT measured_result=-0.863
sequence=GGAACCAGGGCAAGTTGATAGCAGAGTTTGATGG measured_result=1.22
sequence=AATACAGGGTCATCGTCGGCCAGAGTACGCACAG measured_result=1.48
sequence=CCGACAGGGGCATAAGGTTACCATAAGCCAGCCC measured_result=-1.04

**Query** Given the sequence GCGACTGGAGCAAAGCAGGTTACCATAAGGTTGG , what is its reported PBM binding z-score?
**Result** -1.59

**Query** Any idea what its PBM binding z-score is? The sequence is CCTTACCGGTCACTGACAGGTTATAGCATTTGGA
**Result** 0.217

**Query** GET /values?readout=PBM binding z-score&item= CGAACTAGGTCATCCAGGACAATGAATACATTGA
**Result** 1.7

**Query** Field request: PBM binding z-score | item: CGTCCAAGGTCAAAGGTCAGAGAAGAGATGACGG
**Result** 0.47

**Query** What value of PBM binding z-score has been reported for the following sequence? TGTCAAAATTCAAAGGTAACGTAAGTATCCACAC
**Result** 1.21
